Attribution: ChEMBL document CHEMBL2424638

Biological target: G-protein coupled receptor 35 (Homo sapiens, UniProt Q9HC97)
Sequence (Q9HC97 whole entry): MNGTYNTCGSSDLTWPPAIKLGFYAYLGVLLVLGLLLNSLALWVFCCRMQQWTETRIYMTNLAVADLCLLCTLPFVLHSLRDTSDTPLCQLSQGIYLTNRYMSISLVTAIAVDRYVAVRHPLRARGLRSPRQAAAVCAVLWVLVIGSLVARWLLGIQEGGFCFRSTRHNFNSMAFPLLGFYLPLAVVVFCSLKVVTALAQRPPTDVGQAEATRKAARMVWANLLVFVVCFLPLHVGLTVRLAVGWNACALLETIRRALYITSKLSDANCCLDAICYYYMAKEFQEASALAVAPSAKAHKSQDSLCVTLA
Test: Agonist activity at C-terminal beta-galactosidase tagged human recombinant GPR35 expressed in CHO cells after 90 mins by beta-arrestin recruitment assay
Type: cell-based
pEC50: −log10 of the molar value.
Reported pEC50 values follow for various compounds

{"columns": ["smilesStr", "pEC50"],
 "data": [
  ["COc1ccc(C(=O)Nc2cc(Cl)cc3c(=O)cc(C(=O)O)oc23)c(F)c1", 8.22],
  ["O=c1oc2ccccc2c(O)c1Cc1c(O)c2ccccc2oc1=O", 5.01],
  ["COc1ccc(C(=O)Nc2cc(OC)cc3c(=O)cc(C(=O)O)oc23)cc1", 7.59],
  ["COc1ccc(C(=O)Nc2cc(Br)cc3c(=O)cc(C(=O)O)oc23)cc1F", 8.36]
]}

====

Molecular target: G-protein coupled receptor 35 (Homo sapiens, UniProt Q9HC97)
Assay: Competitive binding affinity to human recombinant GPR35 expressed in CHO cells by scintillation counting analysis in presence of MgCl2
Type: cell-based

{"columns": ["smilesStr", "Kd, nM"],
 "data": [
  ["[3H]C([3H])([3H])Oc1ccc(C(=O)Nc2cc(Br)cc3c(=O)cc(C(=O)O)oc23)cc1", 5.65]
]}

====

Reported pKi values follow for various compounds
Target: UniProt:Q9HC97
pKi: −log10 of the molar value.

{"columns": ["compound", "pKi"],
 "data": [
  ["COc1ccc(C(=O)Nc2cc(Br)cc3c(=O)cc(C(=O)O)oc23)nc1", 7.25],
  ["Cc1ccc(C(=O)Nc2cccc3c(=O)cc(C(=O)O)oc23)cc1", 6.16],
  ["O=C(Nc1cccc2c(=O)cc(C(=O)O)oc12)c1cccc([N+](=O)[O-])c1", 5.36],
  ["COc1ccc(C(=O)Nc2cccc3c(=O)cc(C(=O)O)oc23)cc1", 6.66],
  ["COc1ccc(C(=O)Nc2cc(Br)cc3c(=O)cc(C(=O)O)oc23)cn1", 7.59],
  ["CCC(=O)Nc1cccc2c(=O)cc(C(=O)O)oc12", 5.17],
  ["COc1ccc(C(=O)Nc2cc(Br)cc3c(=O)cc(C(=O)O)oc23)c(Cl)c1", 8.95],
  ["COc1ccc(C(=O)Nc2cc(C)cc3c(=O)cc(C(=O)O)oc23)cc1", 7.37],
  ["O=C(Nc1cc(Br)cc2c(=O)cc(C(=O)O)oc12)c1ccc2c(c1)OCO2", 7.82],
  ["O=C(O)COc1ccc(/C=C2\\SC(=O)NC2=O)cc1", 7.29],
  ["O=C(O)c1cc(=O)c2c(OCC(O)COc3cccc4oc(C(=O)O)cc(=O)c34)cccc2o1", 5.63],
  ["Cc1cccc(C(=O)Nc2cccc3c(=O)cc(C(=O)O)oc23)c1", 5.32],
  ["O=C(Nc1cc(Br)cc2c(=O)cc(C(=O)O)oc12)c1ccc(Cl)cc1", 8.32],
  ["O=c1oc2ccccc2c(O)c1Cc1c(O)c2ccccc2oc1=O", 7.41],
  ["O=C(Nc1cccc2c(=O)cc(C(=O)O)oc12)c1ccccc1", 5.48],
  ["CCOc1ccc(C(=O)Nc2cc(Br)cc3c(=O)cc(C(=O)O)oc23)cc1", 7.01],
  ["O=C(Nc1cccc2c(=O)cc(C(=O)O)oc12)c1ccc(Br)cc1", 6.63],
  ["O=C(O)c1cc(=O)c2cccc(NC(=O)C3CCCCC3)c2o1", 5.45],
  ["O=C(O)c1cc(=O)c2ccccc2[nH]1 [TRANSTORINE]", 3.86],
  ["O=C(Nc1cccc2c(=O)cc(C(=O)O)oc12)c1ccc(OCC2CC2)cc1", 5.43],
  ["O=C(Nc1cccc2c(=O)cc(C(=O)O)oc12)c1ccc2ccccc2c1", 6.15],
  ["COC(=O)c1cnn(-c2ccc(F)cc2F)c1/C=N/NC(=S)NC(C)(C)C", 7.37],
  ["O=C(Nc1cccc2c(=O)cc(C(=O)O)oc12)c1ccc2ccccc2n1", 6.16],
  ["COc1ccc(C(=O)Nc2cc(Br)cc3c(=O)cc(C(=O)O)oc23)cc1OC", 6.64],
  ["CC(=O)Nc1cccc2c(=O)cc(C(=O)O)oc12", 4.73],
  ["O=C(Cc1ccccc1)Nc1cccc2c(=O)cc(C(=O)O)oc12", 5.57]
]}
